Attribution: ChEMBL document CHEMBL5344428

- MEASUREMENT_NOTES: Cytotoxicity against human MT4 cells assessed as reduction in cell viability incubated for 5 days by MTT assay
- Assay type: toxicity, cell-based
- ASSAY_SETUP: MT4 cells, time 5 day
Reported values of CC50 at 120 h for individual entries
QUANTITY: CC50 at 120 h (µM)

                            smiles_notation  endpoint_unit  qualifier  numeric_result
0  COc1ccc(-n2c(SCCC3CCCCC3)nnc2[C@H](Cc2ccccc2)NC(=O)Cc2c(C)[nH]c3ccccc23)cc1             µM          >             206
1  COc1ccc(-n2c(SCCS(C)(=O)=O)nnc2[C@H](Cc2ccccc2)NC(=O)Cc2c(C)[nH]c3ccccc23)cc1             µM          =             162
2  COc1ccc(-n2c(SCc3cccnc3)nnc2[C@H](Cc2ccccc2)NC(=O)Cc2c(C)[nH]c3ccccc23)cc1             µM          =              24
3  COc1ccc(-n2c(SCc3ncccn3)nnc2[C@H](Cc2ccccc2)NC(=O)Cc2c(C)[nH]c3ccccc23)cc1             µM          =             106

====

- MEASUREMENT_NOTES: Selectivity index, ratio of CC50 for cytotoxicity against human MT4 cells to EC50 for antiviral activity against HIV1 IIIB infected in human MT4 cells
- Type: toxicity, cell-based
- ASSAY_SETUP: read-out: Ratio CC50/EC50
Reported values of selectivity ratio for individual entries
QUANTITY: selectivity ratio

>>> df
                            smiles_notation  numeric_result
0  COc1ccc(N(C)C(=O)[C@H](Cc2cc(F)cc(F)c2)NC(=O)CN(Cc2ccc(F)cc2)C(=O)Cc2ccc(B(O)O)cc2)cc1               4
1  COc1ccc(-n2c(SCCN(C)C)nnc2[C@H](Cc2ccccc2)NC(=O)Cc2c(C)[nH]c3ccccc23)cc1              27
2  COc1ccc(N(C)C(=O)[C@H](Cc2cc(F)cc(F)c2)NC(=O)CN2CCN(C(=O)c3ccc(NC(C)=O)cc3)CC2=O)cc1            1.11
3  COc1ccc(N(C)C(=O)[C@H](Cc2cc(F)cc(F)c2)NC(=O)CN2CCN(C(=O)Cc3c[nH]c4ccccc34)CC2=O)cc1            1.97

====

- Test system: Human immunodeficiency virus 1
- MEASUREMENT_NOTES: Antiviral activity against HIV1 IIIB infected in human MT4 cells assessed as reduction in virus induced cytopathic effect measured after 5 days by MTT assay
- Assay type: functional, organism-based
- ASSAY_SETUP: Human immunodeficiency virus 1, IIIB, MT4, 120 h
Reported values of EC50 for individual entries
QUANTITY: EC50 (µM)

In [3]: df
Out[3]:
                            smiles_notation  quantity  endpoint_unit  qualifier  numeric_result
0  COc1ccc(-n2c(SCc3cncs3)nnc2[C@H](Cc2ccccc2)NC(=O)Cc2c(C)[nH]c3ccccc23)cc1      EC50             µM          =             0.9
1  COc1ccc(N(C)C(=O)[C@H](Cc2ccccc2)NC(=O)CN2CCN(C(=O)Cc3c(C)[nH]c4ccccc34)CC2=O)cc1      EC50             µM          =            14.3
2  COc1ccc(N(C)C(=O)[C@H](Cc2ccccc2)NC(=O)CN2CCN(C(=O)Cc3c[nH]c4ccc(Br)cc34)CC2=O)cc1      EC50             µM          >            16.4
3  COc1ccc(N(C)C(=O)[C@H](Cc2ccccc2)NC(=O)Cn2ccc(NC(=O)c3ccc4ccccc4c3)cc2=O)cc1      EC50             µM          >            27.6
